pKi: −log10 of the molar value.
# collection of pKi values tested on UniProt P50406
# Sequence (P50406 whole entry): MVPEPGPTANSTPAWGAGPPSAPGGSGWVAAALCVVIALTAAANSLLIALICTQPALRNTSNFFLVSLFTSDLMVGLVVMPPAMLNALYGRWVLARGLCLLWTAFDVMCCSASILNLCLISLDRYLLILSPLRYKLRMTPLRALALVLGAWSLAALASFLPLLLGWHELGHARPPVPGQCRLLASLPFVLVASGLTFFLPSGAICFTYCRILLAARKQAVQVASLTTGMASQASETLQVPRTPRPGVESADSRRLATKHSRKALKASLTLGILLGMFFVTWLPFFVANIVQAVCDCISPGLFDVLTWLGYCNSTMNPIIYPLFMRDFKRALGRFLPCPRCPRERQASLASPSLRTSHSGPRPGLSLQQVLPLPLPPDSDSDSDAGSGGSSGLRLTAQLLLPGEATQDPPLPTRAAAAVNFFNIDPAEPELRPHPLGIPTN

{"structureString": "O=C1c2ccccc2S(=O)(=O)N1CCCCCN1CCN(c2cccc(C(F)(F)F)c2)CC1", "pKi": 5.87}
{"structureString": "O=C1c2ccccc2S(=O)(=O)N1CCCCCN1CCN(c2cccc3ccccc23)CC1", "pKi": 7.00}
{"structureString": "COc1ccccc1N1CCN(CCCCCN2C(=O)c3ccccc3S2(=O)=O)CC1", "pKi": 5.70}
{"structureString": "O=C1c2ccccc2S(=O)(=O)N1CCCCCN1CCN(c2ncccn2)CC1", "pKi": 5.15}
{"structureString": "O=C1c2ccccc2S(=O)(=O)N1CCCCCN1CCN(c2ccccn2)CC1", "pKi": 5.58}
{"structureString": "O=C1c2ccccc2S(=O)(=O)N1CCCCCN1CCN(c2ccccc2)CC1", "pKi": 5.74}

----------
target: 5-hydroxytryptamine receptor 7 (Homo sapiens, UniProt P34969)
Sequence (P34969 whole entry): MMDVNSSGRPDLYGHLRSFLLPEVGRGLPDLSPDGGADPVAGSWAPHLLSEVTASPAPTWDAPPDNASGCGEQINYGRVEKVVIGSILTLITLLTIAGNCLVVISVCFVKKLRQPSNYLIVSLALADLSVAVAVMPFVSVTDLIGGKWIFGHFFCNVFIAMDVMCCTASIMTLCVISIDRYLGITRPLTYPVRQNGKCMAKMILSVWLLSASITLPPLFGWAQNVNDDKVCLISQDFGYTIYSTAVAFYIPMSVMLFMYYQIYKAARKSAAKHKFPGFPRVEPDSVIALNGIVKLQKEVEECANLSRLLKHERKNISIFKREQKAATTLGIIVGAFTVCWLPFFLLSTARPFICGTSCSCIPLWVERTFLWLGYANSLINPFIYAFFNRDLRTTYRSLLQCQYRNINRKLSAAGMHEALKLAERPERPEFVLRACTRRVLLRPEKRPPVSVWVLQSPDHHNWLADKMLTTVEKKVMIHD
Reported log10 Ki is given for each of the following molecules.
measureName: log10 Ki (log10 of the value in nM)

{"structureString": "O=C1c2ccccc2S(=O)(=O)N1CCCCCN1CCN(c2cccc3ccccc23)CC1", "log10 Ki": 1.56}
{"structureString": "COc1ccccc1N1CCN(CCCCCCN2C(=O)c3ccccc3S2(=O)=O)CC1", "log10 Ki": 2.02}
{"structureString": "O=C1c2ccccc2S(=O)(=O)N1CCCCCCN1CCN(c2ccc(Cl)cc2)CC1", "log10 Ki": 2.69}
{"structureString": "COc1ccccc1N1CCN(Cc2ccc(CN3C(=O)c4ccccc4S3(=O)=O)cc2)CC1", "log10 Ki": 1.99}
{"structureString": "O=C1c2ccccc2S(=O)(=O)N1CCCCCN1CCN(c2cccc(C(F)(F)F)c2)CC1", "log10 Ki": 1.54}
{"structureString": "O=C1c2ccccc2S(=O)(=O)N1CCCCCN1CCN(c2ncccn2)CC1", "log10 Ki": 3.43}
{"structureString": "O=C1c2ccccc2S(=O)(=O)N1CCCCCN1CCN(c2ccccn2)CC1", "log10 Ki": 2.25}
{"structureString": "O=C1c2ccccc2S(=O)(=O)N1CCCCCCN1CCN(c2cccc(Cl)c2Cl)CC1", "log10 Ki": 2.69}
{"structureString": "O=C1c2ccccc2S(=O)(=O)N1CCCCCN1CCN(c2ccc(Cl)cc2)CC1", "log10 Ki": 2.28}

----------
Target: 5-hydroxytryptamine receptor 1A (Homo sapiens)
Sequence (P08908 whole entry): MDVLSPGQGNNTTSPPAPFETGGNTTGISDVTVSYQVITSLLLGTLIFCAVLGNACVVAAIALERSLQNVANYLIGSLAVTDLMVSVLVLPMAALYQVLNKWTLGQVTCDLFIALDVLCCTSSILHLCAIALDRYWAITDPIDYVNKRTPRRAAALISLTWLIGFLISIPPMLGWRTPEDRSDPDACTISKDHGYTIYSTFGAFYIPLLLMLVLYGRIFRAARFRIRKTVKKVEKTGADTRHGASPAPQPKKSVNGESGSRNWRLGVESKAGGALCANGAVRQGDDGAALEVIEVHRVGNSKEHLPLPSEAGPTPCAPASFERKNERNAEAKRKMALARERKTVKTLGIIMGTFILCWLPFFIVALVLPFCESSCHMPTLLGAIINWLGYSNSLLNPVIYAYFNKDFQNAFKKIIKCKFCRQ
Label key: TRUE means Ki under 10 nM; FALSE means Ki of 10 nM or more.

{"structureString": "COc1cccc(N2CCN(CCN3C(=O)c4ccccc4C3=O)CC2)c1", "classification": "FALSE"}
{"structureString": "COc1cccc(N2CCN(CCOc3ccccc3C(N)=O)CC2)c1", "classification": "FALSE"}
{"structureString": "COc1ccccc1N1CCN(CCCCCN2C(=O)c3ccccc3S2(=O)=O)CC1", "classification": "TRUE"}
{"structureString": "O=C1c2ccccc2S(=O)(=O)N1CCCN1CCN(c2ncccn2)CC1", "classification": "TRUE"}
{"structureString": "O=C1c2ccccc2S(=O)(=O)N1CCCCN1CCN(c2ncccn2)CC1", "classification": "TRUE"}
{"structureString": "O=C1c2ccccc2S(=O)(=O)N1CCCCCN1CCN(c2ccccc2)CC1", "classification": "FALSE"}
{"structureString": "O=C1c2ccccc2S(=O)(=O)N1CCN1CCN(c2cccc(C(F)(F)F)c2)CC1", "classification": "FALSE"}
{"structureString": "O=C1c2ccccc2C(=O)N1CCCN1CCN(c2ccccc2)CC1", "classification": "FALSE"}
{"structureString": "O=C1c2ccccc2S(=O)(=O)N1CCCCCN1CCN(c2cccc(C(F)(F)F)c2)CC1", "classification": "FALSE"}
{"structureString": "COc1cccc(N2CCN(CCCOc3ccccc3C(N)=O)CC2)c1", "classification": "FALSE"}
{"structureString": "O=C1c2ccccc2S(=O)(=O)N1CCCCCN1CCN(c2ccccn2)CC1", "classification": "FALSE"}
{"structureString": "COc1cccc(N2CCN(CCCN3C(=O)c4ccccc4C3=O)CC2)c1", "classification": "FALSE"}
{"structureString": "COc1cccc(N2CCN(CCCCOc3ccccc3C(N)=O)CC2)c1", "classification": "FALSE"}
{"structureString": "O=C1c2ccccc2C(=O)N1CCCCCCN1CCN(c2ccccc2)CC1", "classification": "TRUE"}
{"structureString": "COc1cccc(N2CCN(CCCCCCn3c(=O)oc4ccccc4c3=O)CC2)c1", "classification": "FALSE"}
{"structureString": "O=C1c2ccccc2C(=O)N1CCCCCN1CCN(c2ccccc2)CC1", "classification": "TRUE"}
{"structureString": "COc1ccccc1N1CCN(CCCCCCN2C(=O)c3ccccc3C2=O)CC1", "classification": "FALSE"}
{"structureString": "O=c1oc2ccccc2c(=O)n1CCCN1CCN(c2ccccc2)CC1", "classification": "FALSE"}
{"structureString": "O=C1c2ccccc2C(=O)N1CCN1CCN(c2ccccc2)CC1", "classification": "FALSE"}

The origin of these recorded values is ChEMBL document CHEMBL4819072.
